Reported GI50 values follow for various compounds
# Test system: KM12
# procedure summary: NCI tumour cell line growth inhibition, 48 h
Calls of active or inactive are those of the source. No stated cut-off is given here; in the data, active = GI50 up to about 1.1 µM and inactive = higher.
assay endpoint: GI50

{"columns": ["compound", "assay endpoint", "result"],
 "data": [
  ["C[n+]1ccc(-c2cc[n+](C)cc2)cc1 [PARAQUAT DICHLORIDE]", "GI50", "5.83 µM (inactive)"],
  ["CC1(C)SC2C(NC(=O)C(C(=O)O)c3ccccc3)C(=O)N2C1C(=O)O (centres undefined)", "GI50", "> 100 µM (inactive)"],
  ["CC(=O)OCC1OC(Nc2ncc(-c3ccc(C)cc3)s2)C(OC(C)=O)C(OC(C)=O)C1OC(C)=O (centres undefined)", "GI50", "36.1 µM (inactive)"],
  ["CN(C)c1ccc(/C=C2\\C[C@H]3[C@@H]4CCc5cc(OCCN6CCCC6)ccc5[C@H]4CC[C@]3(C)C2=O)cc1", "GI50", "1.74 µM (inactive)"]
]}

###

# System: KM-20L2
# procedure summary: NCI tumour cell line growth inhibition, 48 h
Activity calls are given as the source filed them. Rule as the data show it: active = GI50 up to about 1.1 µM and inactive = higher.
# reported GI50; entries follow
assay endpoint: GI50

{"columns": ["compound", "result"],
 "data": [
  ["O=C(NC(=O)c1ccccc1[N+](=O)[O-])Nc1ccc(Oc2ncc(Cl)cn2)c(C(F)(F)F)c1", "< 0.0125 µM (active)"],
  ["NC(=O)c1ccccc1[N+](=O)[O-]", "> 100 µM (inactive)"],
  ["OCCCOC(c1ccccc1)(c1ccccc1)c1ccccc1", "> 100 µM (inactive)"],
  ["C=C1C[C@@H](O)C[C@@]2(C)C[C@@H]3OC(=O)C(=C)[C@@H]3C[C@H]12", "5.83 µM (inactive)"],
  ["COc1cc2cnc3c4cc(OC)c(OC(C)C)cc4ccc3c2cc1OC", "> 100 µM (inactive)"],
  ["CC(C)=CC(=O)C1c2cccc(O)c2C(=O)c2c(O)cc(C)cc21 (configuration not stated)", "4.86 µM (inactive)"],
  ["Cc1ccc(NC(=O)/C(=N/NC(=O)CC#N)C2C(=O)N(c3ccccc3)N=C2N)cc1C (configuration not stated)", "> 100 µM (inactive)"],
  ["COC(=O)C(=O)OC1(C(C)=O)CC2(c3ccccc3)OC1(c1ccccc1)c1ccccc12 (configuration not stated)", "15.6 µM (inactive)"],
  ["COc1ccc(S(=O)(=O)N(C)CC(=O)O)cc1", "> 100 µM (inactive)"],
  ["O=S1(=O)CC#CC[C@@H](CO)[C@@H](CO)CC#CC1", "> 100 µM (inactive)"],
  ["O=C(CC/C=C(/CS(=O)(=O)c1ccccc1)S(=O)(=O)c1ccccc1)c1ccccc1", "> 100 µM (inactive)"],
  ["CCc1cc(CCC(=O)Nc2ccccc2[N+](=O)[O-])nc(S)n1", "> 100 µM (inactive)"]
]}

###

# Test system: 786-0
# procedure summary: NCI tumour cell line growth inhibition, 48 h
Calls of active or inactive are those of the source. Rule as the data show it: active = GI50 up to about 1.1 µM and inactive = higher.
Possible outcomes: 1 (yes) = active, 0 (no) = inactive

{"columns": ["compound", "group"],
 "data": [
  ["COc1ccc(C)c2c1N[C@](C)([C@]1(C)Nc3c(OC)ccc(C)c3C1=O)C2=O", "0 (no)"],
  ["Oc1nncc2[nH]c(-c3ccccc3)cc12", "0 (no)"],
  ["O=C1c2ccccc2-c2ccc(/N=N/c3c(O)ccc4ccccc34)cc21", "0 (no)"],
  ["C=CCCCCOC1C=CC(O)C(CO)O1 (stereo unspecified)", "0 (no)"],
  ["CCC1(CC)C(=O)CC[C@@]2(C)C1=CC[C@H]1[C@@H]3CC[C@H](O)[C@@]3(C)CC[C@@H]12", "0 (no)"],
  ["Cn1c2ccccc2n2c3ccccc3c3nnc(N)c-3c12", "1 (yes)"],
  ["Cc1ccc(C(=O)/C=C/c2ccccc2O)c(C)c1", "0 (no)"],
  ["Cc1c2c(n(CCc3ccc(Cl)cc3)c1C)NC(c1ccccc1)C(C#N)S2(=O)=O (stereo unspecified)", "0 (no)"],
  ["NCCCCC(=O)c1cccnc1", "0 (no)"],
  ["CCCCCCCCCCCCOP(=O)(O)OP(=O)(O)OCC1OC(n2cc(C)c(=O)[nH]c2=O)CC1O (stereo unspecified)", "0 (no)"],
  ["C=CCc1cccc2cc(C(=O)Nc3ccc(C)cc3)c(=N)oc12", "0 (no)"]
]}

###

# System: SW-620
# procedure summary: NCI tumour cell line growth inhibition, 48 h
Calls of active or inactive are those of the source. No stated cut-off is given here; in the data, active = GI50 up to about 1.1 µM and inactive = higher.
Outcomes: active, inactive

{"columns": ["compound", "group"],
 "data": [
  ["CC1NC(/C(=C/c2ccccc2O)NC(=O)c2ccccc2)OC1=O (stereo not given)", "inactive"],
  ["CC(O)CN1C(=O)NC(Cc2ccccc2)C1=O (stereo not given)", "inactive"],
  ["Cn1cnc(N)c(N=O)c1=O", "inactive"],
  ["CC(C)=C[C@@H]1C[C@H](n2cc(C)c(=O)[nH]c2=O)ON1CCO", "inactive"],
  ["CCC(C)C(=O)O[C@H]1C(=O)O[C@@H]2C[C@H]3C(C)=CC(=O)[C@@H](O)[C@]3(C)[C@H]3[C@@H](O)[C@H](O)[C@@]4(C)OC[C@]32[C@@H]14 (stereo not given in full)", "active"],
  ["C=CC[C@H]1[C@@H](O[Si](C)(C)C(C)(C)C)[C@H](n2ccc(=O)[nH]c2=O)O[C@@H]1CO[Si](C)(C)C(C)(C)C", "inactive"],
  ["COc1c2c(cc3c(CCc4ccccc4)cc(=O)oc13)CCC(C)(C)O2", "inactive"],
  ["O=C(/C=C(O)/C(=C/C(=O)c1ccccc1)NN=C(c1ccccc1)c1ccccc1)c1ccccc1", "inactive"],
  ["CCOC(=O)/C=C(\\C(=O)OCC)n1ccc(=O)n(Cc2cnnn2COCCOC(C)=O)c1=O", "inactive"],
  ["COc1ccc(NC(=O)c2cc(OC)cc(OC)c2)cc1", "inactive"],
  ["CN1C(=O)C(=CNc2ccccc2[N+](=O)[O-])C(=O)N(C)C1=O", "inactive"],
  ["Cc1c2c(n(CCc3ccc(Cl)cc3)c1C)NC(c1ccccc1)C(C#N)S2(=O)=O (stereo not given)", "inactive"],
  ["O/N=C1\\CCc2cc3c(cc21)CCC3", "inactive"],
  ["O=C1Nc2ccccc2C1(O)C/C(=N/O)c1ccc2ccccc2c1 (stereo not given)", "inactive"],
  ["CC(C)C(Cl)CCC(C)(Cl)C(=O)CBr (stereo not given)", "inactive"],
  ["COc1ccc(/C=C2/C(=O)N(C(=O)c3ccc(Cl)cc3)N=C2C)cc1OC", "inactive"],
  ["O=c1[nH]nc(Cc2ccccc2)n1/N=C\\c1ccccc1", "inactive"],
  ["CCN(CC)CCNc1c2ccccc2nc2cccc([N+](=O)[O-])c12", "active"],
  ["Cc1cn(CCCCCOC(=O)NC(CCCNC(=N)N)C(=O)O)c(=O)[nH]c1=O (stereo not given)", "inactive"],
  ["COc1ccc(/C=C2\\C[C@H]3[C@@H]4CCC5=C/C(=N/O)CC[C@]5(C)[C@H]4CC[C@]3(C)\\C2=N\\O)cc1OC", "inactive"]
]}

###

# Tested on: SF-268
# procedure summary: NCI tumour cell line growth inhibition, 48 h
Activity calls are given as the source filed them. Cut-off read from the data, not from the text of the source: active = GI50 up to about 1.1 µM and inactive = higher.
Quick list: GI50 per entry.
assay endpoint: GI50

{"columns": ["compound", "result"],
 "data": [
  ["Cc1ccc(C2=Nc3cc(C)c(Cl)cc3S(=O)(=O)NN2)cc1", "82.6 µM (inactive)"],
  ["c1cc2c3c(c1)[C@@H]1O[C@@H]1c1cccc(c1-3)[C@@H]1O[C@H]21", "16.3 µM (inactive)"],
  ["CCOC(=O)CNC(=O)NC12CC3CC(CC(C3)C1)C2", "284 µM (inactive)"],
  ["CCc1cc(CCC(=O)Nc2ccccc2[N+](=O)[O-])nc(S)n1", "> 100 µM (inactive)"],
  ["O=C(CC(=O)C(F)(F)F)c1csc2ccccc12", "30.8 µM (inactive)"],
  ["O=C1c2c(ccc3c2CCC3)CC1Cc1ccc2c(c1)CCC2 (stereo unspecified)", "33.7 µM (inactive)"],
  ["Nc1nc(N)c2nn(-c3ccc(C(=O)O)cc3)nc2n1", "> 100 µM (inactive)"],
  ["O=C1CCSC(=S)N1c1ccc(Br)c(Cl)c1", "18.5 µM (inactive)"],
  ["Clc1ccccc1C(SCc1ccccc1)SCc1ccccc1", "> 100 µM (inactive)"],
  ["O=C(O)c1ccc(C(=O)O)c2c(C(=O)O)ccc(C(=O)O)c12", "> 100 µM (inactive)"],
  ["O=C(O)CCC(=O)c1ccc2c(c1)C(C(=O)O)CC2 (stereo unspecified)", "> 100 µM (inactive)"]
]}

Origin of the recorded values: ChEMBL document CHEMBL1201862
